Test system: foxtail, giant (giant foxtail, Setaria faberii)
Assay: Test C pre-/postemergence: foxtail, giant
Assay type: in vivo
Details: Preemergence, 250 g ai/ha; scale 0 to 100, 0 no effect, 100 complete control
RECORDED_METRIC: Plant response rating, Foxtail, Giant

| CPD_SMILES | STUDY_TARGET | RESULT_VALUE |
| --- | --- | --- |
| CCCc1nn(-c2ccc(C(F)(F)F)cc2)nc1Oc1ccnc(C(F)(F)F)c1 | foxtail, giant (giant foxtail, Setaria faberii) | 100 |
| CCc1nn(-c2ccc(F)cc2)nc1Cc1ccnc(C(F)(F)F)c1 | foxtail, giant (giant foxtail, Setaria faberii) | 100 |
| Cc1nn(-c2ccc(C(F)(F)F)cn2)nc1Cc1cccc(C(F)(F)F)c1 | foxtail, giant (giant foxtail, Setaria faberii) | 100 |

### Prompt Using the record for CCCc1nn(-c2ccc(F)c(F)c2)nc1Oc1ccnc(C(F)(F)F)c1 , report its Plant response rating, Foxtail, Giant.
### Response 100

### Prompt Fill in: Plant response rating, Foxtail, Giant of COc1nn(-c2cccc(F)c2)nc1Cc1ccnc(C(F)(F)F)c1 is ___
### Response 100

### Prompt Recorded Plant response rating, Foxtail, Giant of FC(F)Oc1nn(-c2ccc(C(F)(F)F)cc2)nc1Cc1ccnc(C(F)(F)F)c1 , please.
### Response 100
